Molecular target: T1, full-length beta-Catenin (Uniprot ID P35222) (Homo sapiens (Human), UniProt P35222 1-781)
T1 construct: the AlphaScreen used a Histidine (Nickel Chelate) detection kit, so a His tag is likely but not described; also called B-Catenin; bCat
T1 sequence: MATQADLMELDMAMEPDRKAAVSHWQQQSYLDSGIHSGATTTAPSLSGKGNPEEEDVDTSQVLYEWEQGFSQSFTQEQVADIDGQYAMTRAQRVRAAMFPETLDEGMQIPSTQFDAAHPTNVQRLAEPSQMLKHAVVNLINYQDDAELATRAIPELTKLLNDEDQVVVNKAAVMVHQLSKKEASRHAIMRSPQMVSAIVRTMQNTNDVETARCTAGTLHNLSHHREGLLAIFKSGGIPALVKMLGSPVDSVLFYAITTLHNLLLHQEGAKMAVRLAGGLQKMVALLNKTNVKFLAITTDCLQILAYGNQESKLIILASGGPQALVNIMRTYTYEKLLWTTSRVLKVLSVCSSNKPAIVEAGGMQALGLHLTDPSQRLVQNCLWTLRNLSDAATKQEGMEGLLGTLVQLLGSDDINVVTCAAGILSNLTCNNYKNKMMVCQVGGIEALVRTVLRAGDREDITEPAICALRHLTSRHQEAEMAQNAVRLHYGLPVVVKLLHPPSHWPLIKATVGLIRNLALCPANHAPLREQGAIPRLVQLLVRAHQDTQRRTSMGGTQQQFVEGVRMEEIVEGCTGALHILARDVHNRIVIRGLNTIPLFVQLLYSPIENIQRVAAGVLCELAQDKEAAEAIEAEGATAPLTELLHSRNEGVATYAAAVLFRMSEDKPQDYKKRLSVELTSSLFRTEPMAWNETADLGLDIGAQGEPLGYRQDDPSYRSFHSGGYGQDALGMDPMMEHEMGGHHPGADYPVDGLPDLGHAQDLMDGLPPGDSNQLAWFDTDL
Assay: FP competition vs 5FAM-TCF4(10-53) probe on full-length beta-catenin
Starred links: 1 amine or outer side, 2 acyl side, 3 side chain; linkers in the order of their positions; H or OH if unused. Positions of bridges follow the written chain, without caps; N, C: chain ends. Non-standard residues stand in square brackets, D forms with d. Primed or numbered codes have the meaning given here. B5(11) = 2,2-bis(4-pentenyl)glycine = 2-amino-2-(pent-4-en-1-yl)hept-6-enoic acid (stitching residue, bears both staples), C=CCCCC(CCCC=C)(N[*:1])C(=O)[*:2]; B5(4) = 2,2-bis(4-pentenyl)glycine = 2-amino-2-(pent-4-en-1-yl)hept-6-enoic acid (stitching residue), C=CCCCC(CCCC=C)(N[*:1])C(=O)[*:2]; B5 = 2-amino-2-(pent-4-en-1-yl)hept-6-enoic acid, C=CCCCC(CCCC=C)(N[*:1])C(=O)[*:2]; Phe(4-Cl) = N[C@@H](Cc1ccc(Cl)cc1)C(=O)O; Phe(4-NH2) = Nc1ccc(C[C@H](N)C(=O)O)cc1; αAllylPro = C=CC[C@@]1(C(=O)O)CCCN1; 2Thi = N[C@@H](Cc1cccs1)C(=O)O; S8 = C=CCCCCCC[C@](C)(N)C(=O)O
observedProperty: EC50
Include the unit right after the number.

[
  {
    "binder": "Ac-[αAllylPro]DA[B5]DDAA[Phe(4-Cl)]V[S8]FWQ-NH2 (staple 1-4, 4-11; not fully specified; printed as Ac-PL3-Asp-Ala-B5-Asp-Asp-Ala-Ala-4C1F-Val-S8-Phe-Trp-Gln-NH2, Ac-PL3-Asp-Ala-B5-Asp-Asp-Ala-Ala-4C1F-Val-S8-Phe-Trp-Gln-NH2; stapled peptide composition) [I-309]",
    "result": "3.12 µM"
  }
]

Look up and report measured EC50 for this entry: Ac-[αAllylPro]DA[B5(11)]DDAA[Phe(4-NH2)]V[S8]FWQ-NH2 (staple 1-4, 4-11; not fully specified; printed as Ac-PL3-Asp-Ala-B5-Asp-Asp-Ala-Ala-4AmPhe-Val-S8-Phe-Trp-Gln-NH2, Ac-PL3-Asp-Ala-B5-Asp-Asp-Ala-Ala-4AmPhe-Val-S8-Phe-Trp-Gln-NH2; stapled peptide composition) [I-323]
3.47 µM

Dear colleague, please send me the reported EC50 for Ac-[αAllylPro]DA[B5(4)]DDAA[2Thi]V[S8]FWQ-NH2 (staple 1-4, 4-11, Ac-PL3-Asp-Ala-B5-Asp-Asp-Ala-Ala-2Thi-Val-S8-Phe-Trp-Gln-NH2; stapled peptide composition) [I-325] when you can.
1.31 µM

Respond only with EC50 recorded for Ac-[αAllylPro]DA[B5]DDAAFQ[S8]FWA-NH2 (staple 1-4, 4-11, Ac-PL3-Asp-Ala-B5-Asp-Asp-Ala-Ala-Phe-Gln-S8-Phe-Trp-Ala-NH2; stapled peptide composition) [I-316]
3.98 µM
